The measurements presented in this section are drawn from patent US11702414B2.

Quick reference: IC50 of the listed items.
Target: UniProt Q9NWZ3
Assay: IRAK4 Biochemical Assay (TR-FRET, STK1 KinEASE)
Conditions: second part of Table 2 (compounds 33-343); unit inferred; read-out: IC50 IRAK4-HTBS
Experimental: IRAK4 enzyme (Carna Biosciences, Chuo-ku, Kobe, Japan) activity was measured by detecting phosphorylated peptide substrate formation using an antibody against the phosphorylated peptide substrate. This is a time-resolved fluorescence resonance energy transfer (TR-FRET) immunoassay, based on the STK1 KinEASE Assay (Cisbio, Bedford, Mass.). […] Fluorescence intensities at 615 nm and 665 nm emission wavelengths were expressed as a ratio (665 nm/615 nm). […]

MOLECULE	IC50 (nM)
CC(=O)N1C[C@H]2COC[C@@H](C1)N2c1nnc(-c2cnc(-c3ccc4cc(C#N)cnn34)cc2NC(C)C)s1 [Compound 266]	0.49
CC(=O)NC1CCC(F)(c2nnc(-c3cnc(-c4ccc5cc(C#N)cnn45)cc3NC3COC3)s2)CC1 (single isomer, unassigned) [Example 196]	1.62
CC(=O)NC1CCC(F)(c2nnc(-c3cnc(-c4ccc5cc(C#N)cnn45)cc3NC3COC3)s2)CC1 (single isomer, unassigned) [Example 195]	1.09
CC1(O)CCC(c2nnc(-c3cnc(-c4ccc5cc(C#N)cnn45)cc3NC3COC3)s2)CC1 (single isomer, unassigned) [Example 206]	0.56

====

Target: UniProt Q9NWZ3
Test: IRAK4 Biochemical Assay (TR-FRET, STK1 KinEASE)
Quick reference: IC50 of the listed items.
REPORTED METRIC: IC50 (nM)

STRUCTURE AS SMILES	UNIT INFO	OBSERVED MEASUREMENT
CC(=O)N1[C@@H]2COC[C@H]1CN(c1nnc(-c3cnc(-c4ccc5cc(C#N)cnn45)cc3NC3CCOCC3)s1)C2	nM	0.8
CC(C)Nc1cc(-c2ccc3cc(C#N)cnn23)ncc1-c1nnc(CC#N)s1	nM	1.46
CC(=O)N1CC2CC(C1)N2c1nnc(-c2cnc(-c3ccc4cc(C#N)cnn34)cc2NC(C)C)s1	nM	0.73
CC(=O)N1CCN(c2nnc(-c3cnc(-c4ccc5cc(C#N)cnn45)cc3NC(C)C)s2)CC1	nM	0.62
CC(=O)N1CC2CCC(C1)N2c1nnc(-c2cnc(-c3ccc4cc(C#N)cnn34)cc2NC(C)C)s1	nM	2.56

====

Quick reference: pIC50 of the listed items.
Biological target: IRAK4 enzyme (Homo sapiens (Human))
Sequence (Q9NWZ3 whole entry): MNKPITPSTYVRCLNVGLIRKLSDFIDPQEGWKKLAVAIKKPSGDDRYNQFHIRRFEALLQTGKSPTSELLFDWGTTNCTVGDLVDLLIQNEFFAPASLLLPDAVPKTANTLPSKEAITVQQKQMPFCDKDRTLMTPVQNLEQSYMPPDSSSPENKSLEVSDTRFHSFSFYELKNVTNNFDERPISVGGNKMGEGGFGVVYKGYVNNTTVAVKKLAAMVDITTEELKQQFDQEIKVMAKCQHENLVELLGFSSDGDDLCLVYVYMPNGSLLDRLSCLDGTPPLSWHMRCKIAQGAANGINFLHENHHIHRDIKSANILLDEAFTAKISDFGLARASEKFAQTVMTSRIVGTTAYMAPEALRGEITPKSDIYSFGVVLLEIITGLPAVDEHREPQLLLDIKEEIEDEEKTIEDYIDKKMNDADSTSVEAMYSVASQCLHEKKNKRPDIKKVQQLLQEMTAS
Assay: IRAK4 Biochemical Assay (TR-FRET, STK1 KinEASE)
pIC50: −log10 of the molar value.

STRUCTURE AS SMILES	pIC50
CC(C)Nc1cc(-c2ccc3cc(C#N)cnn23)ncc1-c1nnc(N2CCC[C@H]2CO)s1	9.08
CC(C)(O)C(=O)NC12CCC(c3nnc(-c4cnc(-c5ccc6cc(C#N)cnn56)cc4NC4COC4)s3)(C1)C2	9.19
CC(C)Nc1cc(-c2ccc3cc(C#N)cnn23)ncc1-c1nnc(N2CC3(CCC(C)(O)CC3)C2)s1	8.93
CC(=O)N1CCC2(CC1)CN(c1nnc(-c3cnc(-c4ccc5cc(C#N)cnn45)cc3NC(C)C)s1)C2	9.23
COC(=O)N[C@H]1CCN(C(=O)c2nnc(-c3cnc(-c4ccc5cc(C#N)cnn45)cc3NC(C)C)s2)C1	9.14
